Overview of reported selectivity ratio across a group of compounds:
# Tested on: aromatase
# experiment_summary: Selectivity index, ratio of IC50 for GFP-expressing African green monkey Vero cells to IC50 for aromatase (unknown origin)
# Assay type: toxicity
# conditions: read-out: Ratio IC50
No unit in the answer, only the number.

O=S(=O)(NCCc1c(C(c2ccc(O)cc2)c2[nH]c3ccccc3c2CCNS(=O)(=O)c2ccc(C(F)(F)F)cc2)[nH]c2ccccc12)c1ccc(C(F)(F)F)cc1
10.2

Turning to the following compound.
Would you kindly share the measured selectivity ratio for Cc1ccc(S(=O)(=O)NCCc2c(C(c3ccccc3O)c3[nH]c4ccccc4c3CCNS(=O)(=O)c3ccc(C)cc3)[nH]c3ccccc23)cc1 ?
3.6

----------
# System: aromatase
# experiment_summary: Selectivity index, ratio of IC50 for GFP-expressing African green monkey Vero cells to IC50 for aromatase (unknown origin)
# Assay type: toxicity
# conditions: read-out: Ratio IC50
measurement_name: selectivity ratio

Known results for compounds:
O=[N+]([O-])c1ccc(C(c2[nH]c3ccccc3c2CCNS(=O)(=O)c2ccc(C(F)(F)F)cc2)c2[nH]c3ccccc3c2CCNS(=O)(=O)c2ccc(C(F)(F)F)cc2)cc1
> 14.4
O=[N+]([O-])c1ccccc1S(=O)(=O)NCCc1c(C(c2ccccc2O)c2[nH]c3ccccc3c2CCNS(=O)(=O)c2ccccc2[N+](=O)[O-])[nH]c2ccccc12
> 13.7
O=S(=O)(NCCc1c(C(c2ccc(Br)cc2)c2[nH]c3ccccc3c2CCNS(=O)(=O)c2ccc(Cl)cc2)[nH]c2ccccc12)c1ccc(Cl)cc1
16.6
O=S(=O)(NCCc1c(C(c2ccc(C(F)(F)F)cc2)c2[nH]c3ccccc3c2CCNS(=O)(=O)c2ccc(C(F)(F)F)cc2)[nH]c2ccccc12)c1ccc(C(F)(F)F)cc1
> 24.4
COc1ccc(S(=O)(=O)NCCc2c(C3(c4[nH]c5ccccc5c4CCNS(=O)(=O)c4ccc(OC)cc4)C(=O)Nc4ccccc43)[nH]c3ccccc23)cc1
> 22.6

Would you kindly share the measured selectivity ratio for O=[N+]([O-])c1ccc(C(c2[nH]c3ccccc3c2CCNS(=O)(=O)c2ccc(F)cc2)c2[nH]c3ccccc3c2CCNS(=O)(=O)c2ccc(F)cc2)cc1 ?
> 18.6

Value source: ChEMBL document CHEMBL4138181
